ASSAY: Stability in Simulated Gastric Fluid (SGF)
Type: in vitro ADME
Design: key: % parent compound remaining relative to 0-minute sample
MEASUREMENT CONTEXT: % remaining at 1 h; SGF with pepsin pH 1.2, 2 μg/mL, 37° C.
EXPERIMENTAL READOUT: SGF (%)

{"MOLECULE": "CC(C)OCCn1c(=S)[nH]c(=O)c2c1ccn2COC(=O)CCCCNC(=O)[C@@H](NC(=O)OC(C)(C)C)C(C)C", "UNIT SPEC": "%", "ENDPOINT VALUE": 81}
{"MOLECULE": "CC(C)OCCn1c(=S)[nH]c(=O)c2c1ccn2COC(=O)[C@@H]1CCC(=O)N1", "UNIT SPEC": "%", "ENDPOINT VALUE": 98}
{"MOLECULE": "COCCOCCOC(=O)OCSc1nc(=O)c2c(ccn2COC(=O)OCCOCCOC)n1CCOC(C)C", "UNIT SPEC": "%", "ENDPOINT VALUE": 96}
{"MOLECULE": "COC(=O)[C@H](CCCCNC(=O)OC(C)(C)C)NC(=O)OCn1ccc2c1c(=O)[nH]c(=S)n2CCOC(C)C", "UNIT SPEC": "%", "ENDPOINT VALUE": 75}

I. CC(C)OCCn1c(=S)[nH]c(=O)c2c1ccn2COC(=O)[C@@H]1CCC(=O)N1C(=O)OCc1ccccc1
II. CC(C)OCCn1c(SC(C)OC(=O)N(C(C)C)C(C)C)nc(=O)c2[nH]ccc21 (stereo not shown)
III. CC(C)OCCn1c(=S)[nH]c(=O)c2c1ccn2C(C)OC(=O)N(C)CC(=O)OC(C)(C)C (stereo not shown)
[Q] Kindly order the items shown according to SGF, from the highest value down. As an answer, provide the labels arranged in the order called for.
[A] I, III, II
(I: 97%, III: 44%, II: 1%)

###

ASSAY: Stability in Simulated Intestinal Fluid (SIF)
Assay type: in vitro ADME
Parameters: key: % parent compound remaining relative to 0-minute sample
MEASUREMENT CONTEXT: % remaining at 1 h in simulated intestinal fluid; the 17th table
EXPERIMENTAL READOUT: SIF (% remaining)

Below, 3 compounds whose answers are already recorded.
{"COMPOUND": "CCCCNC(=O)n1ccc2c1c(=O)[nH]c(=S)n2CCOC(C)C", "SIF / % remaining": 100}
{"COMPOUND": "CCCNC(=O)n1ccc2c1c(=O)[nH]c(=S)n2CCOC(C)C", "SIF / % remaining": 78}
{"COMPOUND": "CCC(C)NC(=O)n1ccc2c1c(=O)[nH]c(=S)n2CCOC(C)C (stereo not shown)", "SIF / % remaining": 83}

A. CCCCCCOC(=O)OCSc1nc(=O)c2c(ccn2COC(=O)OCCCCCC)n1CCOC(C)C
B. CC(=O)OCc1ccccc1N(C)C(=O)OCn1ccc2c1c(=O)nc(S)n2CCOC(C)C
C. CCCCCCOC(=O)OCn1c(=O)c2c(ccn2COC(=O)OCCCCCC)n(CCOC(C)C)c1=S
[Q] Please produce an ascending ranking of these compounds based on SIF. Order the labels as requested and give them as your answer.
[A] C, A, B
(C: 1 % remaining, A: 2 % remaining, B: 88 % remaining)

###

ASSAY: Stability in Simulated Gastric Fluid (SGF)
Type: in vitro ADME
Set-up: key: % parent compound remaining relative to 0-minute sample
MEASUREMENT CONTEXT: % remaining at 1 h in simulated gastric fluid
EXPERIMENTAL READOUT: SGF (% remaining)

{"COMPOUND": "CC(C)OCCn1c(SCOC(=O)C2CCNCC2)nc(=O)c2c1ccn2COC(=O)CCC(=O)O", "SGF, % remaining": 82}
{"COMPOUND": "CSCC[C@H](N)C(=O)NCCCCC(=O)OCn1ccc2c1c(=O)[nH]c(=S)n2CCOC(C)C.O=C(O)C(F)(F)F", "SGF, % remaining": 94}
{"COMPOUND": "CC(C)OCCn1c(=S)[nH]c(=O)c2c1ccn2COC(=O)OCCOCCNC(=O)OC(C)(C)C", "SGF, % remaining": 83}
{"COMPOUND": "CC(C)OCCn1c(=S)[nH]c(=O)c2c1ccn2COC(=O)CCCCNC(=O)CN(C)C(=O)CNC(=O)OC(C)(C)C.O=C(O)C(F)(F)F", "SGF, % remaining": 81}
{"COMPOUND": "CC(C)OCCn1c(=S)[nH]c(=O)c2c1ccn2COC(=O)CCCCNC(=O)CN(C)C(=O)CN.O=C(O)C(F)(F)F", "SGF, % remaining": 95}
{"COMPOUND": "CC(C)OCCn1c(=S)[nH]c(=O)c2c1ccn2COC(=O)CCCCNC(=O)[C@@H](N)Cc1c[nH]c2ccccc12.O=C(O)C(F)(F)F", "SGF, % remaining": 94}
{"COMPOUND": "CC(C)OCCn1c(=S)[nH]c(=O)c2c1ccn2COC(=O)CCCCNC(=O)[C@@H](NC(=O)OC(C)(C)C)[C@@H](C)O.O=C(O)C(F)(F)F", "SGF, % remaining": 91}
{"COMPOUND": "CC(C)OCCn1c(=S)[nH]c(=O)c2c1ccn2COC(=O)OC1CN(C(=O)OC(C)(C)C)C1", "SGF, % remaining": 85}
{"COMPOUND": "CC(C)OCCn1c(SCOC(=O)OCCOCCN)nc(=O)c2c1ccn2COC(=O)OCCOCCN.O=C(O)C(F)(F)F.O=C(O)C(F)(F)F", "SGF, % remaining": 67}
{"COMPOUND": "CCOC(=O)N1CCCC1C(=O)NCCC(=O)OCn1ccc2c1c(=O)[nH]c(=S)n2CCOC(C)C.O=C(O)C(F)(F)F (stereo not shown)", "SGF, % remaining": 96}
{"COMPOUND": "CC[C@H](C)[C@H](NC(=O)OC(C)(C)C)C(=O)NCCC(=O)OCn1ccc2c1c(=O)[nH]c(=S)n2CCOC(C)C", "SGF, % remaining": 85}
{"COMPOUND": "CC(C)OCCn1c(=S)[nH]c(=O)c2c1ccn2COC(=O)CCNC(=O)C1CCCN1C(=O)OC(C)C.O=C(O)C(F)(F)F (stereo not shown)", "SGF, % remaining": 76}

###

ASSAY: Stability in Simulated Intestinal Fluid (SIF)
Type: in vitro ADME
Set-up: key: % parent compound remaining relative to 0-minute sample
MEASUREMENT CONTEXT: % @ 1 h (remaining) in simulated intestinal fluid
EXPERIMENTAL READOUT: SIF (% @ 1 h)
Answer in % @ 1 h, number only, no unit symbol.

[Q] Which SIF value is on record for CC(C)OCCn1c(SCOC(=O)N(C)Cc2ccccc2)nc(=O)c2[nH]ccc21.O=C(O)C(F)(F)F [Example 173] ?
[A] 99

[Q] # SIF lookup, item CC(C)OCCn1c(SCOC(=O)N(C)C(C)C)nc(=O)c2c1ccn2COC(=O)N(C)C(C)C.O=C(O)C(F)(F)F [Example 171]
[A] 89

[Q] I would be grateful if you could share the reported SIF for CC(C)OCCn1c(SCOC(=O)N(C)CCc2ccccc2)nc(=O)c2c1ccn2COC(=O)N(C)CCc1ccccc1.O=C(O)C(F)(F)F [Example 176] .
[A] 100

###

ASSAY: Stability in Simulated Gastric Fluid (SGF)
Type: in vitro ADME
Set-up: key: % parent compound remaining relative to 0-minute sample
MEASUREMENT CONTEXT: % remaining at 1 h; SGF with pepsin pH 1.2, 2 μg/mL, 37° C.
EXPERIMENTAL READOUT: SGF (%)

{"MOLECULE": "CC(C)OCCn1c(=S)n(COCC[Si](C)(C)C)c(=O)c2[nH]ccc21 [Example 70]", "UNIT SPEC": "%", "SGF": 96}

P. CC(C)OCCn1c(=S)[nH]c(=O)c2c1ccn2COC(=O)CCCCCCC(=O)OCn1ccc2c1c(=O)[nH]c(=S)n2CCOC(C)C [Example 136]
Q. CC(C)OCCn1c(=S)[nH]c(=O)c2c1ccn2C(C)OC(=O)OC1CCN(C(=O)OC(C)(C)C)CC1 (stereo not shown) [Example 99]
[Q] Looking at recorded values for SGF, does P or Q come in lower? To answer, give the label that identifies your chosen option.
[A] Q

###

ASSAY: Plasma Stability
Assay type: in vitro ADME, human
MEASUREMENT CONTEXT: % remaining at 1 h in human plasma; the 15th table
EXPERIMENTAL READOUT: human Plasma stability (% @ 1 h)

{"COMPOUND": "CC(C)CNC(=O)OCSc1nc(=O)c2c(ccn2C(=O)NCC(C)C)n1CCOC(C)C [Example 187]", "EXPERIMENTAL READOUT": "human Plasma stability", "ENDPOINT VALUE": 96}
{"COMPOUND": "CCN(C(=O)OCSc1nc(=O)c2c(ccn2COC(=O)N(CC)C(C)C)n1CCOC(C)C)C(C)C [Example 189]", "EXPERIMENTAL READOUT": "human Plasma stability", "ENDPOINT VALUE": 98}
